test: Toxicity (LD50) and therapeutical index, Table II; conditions: mouse, in vivo
The entries below come with measured LD50 values attached.
Give just the numeric value; mg/kg need not be written.

Below are worked cases with known answers.
CC(=O)N=C1SCCN1c1ccc(C(F)(F)F)cc1[N+](=O)[O-] [Example 26]    2000
CC(=O)N=C1SCCN1c1ccccc1[N+](=O)[O-] [Example 25]    2000

**Q:** Entry CC(=O)N=C1SCCN1c1ccc(Cl)cc1[N+](=O)[O-] [Example 24] has what LD50?
**A:** 700

**Q:** Could you tell me which LD50 is on file for CC(=O)Oc1ccccc1C(=O)O [Acetylsalicylic acid, reference compound] ?
**A:** 1350

----------
assay: Toxicity (LD50) and therapeutical index, Table II; conditions: mouse, in vivo
Overview of recorded selectivity ratio for various compounds
I only need the number, thanks.

CC(=O)Oc1ccccc1C(=O)O [Acetylsalicylic acid, reference compound]    5.2
CC(=O)N=C1SCCN1c1ccc(Cl)cc1[N+](=O)[O-]    10.9
CC(=O)N=C1SCCN1c1ccc(C(F)(F)F)cc1[N+](=O)[O-]    11.8

Now consider a different compound.
**Q:** Entry CC(=O)N=C1SCCN1c1ccccc1[N+](=O)[O-] has what selectivity ratio?
**A:** 11.1
